- Tested on: K12877-001-R-J1-PDC complex spheroid viability;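 further: tumour cells co-cultured with HUVEC and mesenchymal stem cells in spheroids; spheroids exposed to agents for one week before readout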
- PROCEDURE DETAILS: Anticancer human tumor K12877-001-R-J1-PDC patient-derived lung adenocarcinoma cell line growth inhibition [RAS]
- CONDITIONS: second compound 0.0949 µM; first compound 0.0316 µM; active compounds read low
Threshold 70%: viability, T/C strictly smaller gives MET, otherwise NOT MET.

Given the entry Cc1nc(N2CCC3(CC2)COC(C)C3N)c(CO)nc1Sc1ccnc(N)c1Cl (stereo not given) + CCn1c(-c2cccnc2C(C)OC)c2c3cc(ccc31)N1CCOC(CC(NC(=O)C(C(C)C)N(C)C(=O)C3(F)CCN(C(=O)C#CC(C)(C)N(C)C)CC3)C(=O)N3CCCC(N3)C(=O)OCC(C)(C)C2)C1 , would its reported viability, T/C be below 70%?
NOT MET

Field: below-cutoff. Rule: recorded viability, T/C strictly less than 70%. Subject: CC(=O)OC12COC1CC(O)C1(C)C(=O)C(O)C3=C(C)C(OC(=O)C(O)C(NC(=O)OC(C)(C)C)c4ccccc4)CC(O)(C(OC(=O)c4ccccc4)C21)C3(C)C (stereo not given) + CCn1c(-c2cccnc2C(C)OC)c2c3cc(ccc31)N1CCOC(CC(NC(=O)C(C(C)C)N(C)C(=O)C3(F)CCN(C(=O)C#CC(C)(C)N(C)C)CC3)C(=O)N3CCCC(N3)C(=O)OCC(C)(C)C2)C1
MET

Take the compound CCN1CCN(Cc2ccc(Nc3ncc(F)c(-c4cc(F)c5nc(C)n(C(C)C)c5c4)n3)nc2)CC1 + CCn1c(-c2cc(N3CCN(C)CC3)cnc2C(C)OC)c2c3cc(ccc31)-c1csc(n1)CC(NC(=O)C1CC1C)C(=O)N1CCCC(N1)C(=O)OCC(C)(C)C2 and say whether its viability, T/C is less than 70%.
NOT MET

Threshold test, viability, T/C < 70%: Nc1ccn(C2OC(CO)C(O)C2(F)F)c(=O)n1 (stereo not given) + CCn1c(-c2cc(N3CCN(C)CC3)cnc2C(C)OC)c2c3cc(ccc31)-c1csc(n1)CC(NC(=O)C1CC1C)C(=O)N1CCCC(N1)C(=O)OCC(C)(C)C2
MET

Does the reported viability, T/C of C=CC(=O)N1CCN(c2nc(OCC3CCCN3C)nc3c(F)c(-c4nc(N)cc(C)c4C(F)(F)F)c(Cl)cc23)C(C)C1 (stereo not given) + CCn1c(-c2cc(N3CCN(C)CC3)cnc2C(C)OC)c2c3cc(ccc31)-c1csc(n1)CC(NC(=O)C1CC1C)C(=O)N1CCCC(N1)C(=O)OCC(C)(C)C2 stay below 70%?
NOT MET

Lab log: compare recorded viability, T/C with 70%; is it strictly lower for C=CC(=O)Nc1cc(Nc2nccc(-c3cn(C)c4ccccc34)n2)c(OC)cc1N(C)CCN(C)C + CCn1c(-c2cc(N3CCN(C)CC3)cnc2C(C)OC)c2c3cc(ccc31)-c1csc(n1)CC(NC(=O)C1CC1C)C(=O)N1CCCC(N1)C(=O)OCC(C)(C)C2 ?
NOT MET

hey, is viability, T/C for CC(Nc1ccc2c(c1)OCCn1cc(N3C(=O)OCC3C(F)F)nc1-2)C(N)=O (stereo not given) + CCn1c(-c2cc(N3CCN(C)CC3)cnc2C(C)OC)c2c3cc(ccc31)-c1csc(n1)CC(NC(=O)C1CC1C)C(=O)N1CCCC(N1)C(=O)OCC(C)(C)C2 lower than 70% or not?
NOT MET

Say whether its viability, T/C is strictly beneath 70%. Entry: CCN1CCN(Cc2ccc(Nc3ncc(F)c(-c4cc(F)c5nc(C)n(C(C)C)c5c4)n3)nc2)CC1 + CCn1c(-c2cccnc2C(C)OC)c2c3cc(ccc31)N1CCOC(CC(NC(=O)C(C(C)C)N(C)C(=O)C3(F)CCN(C(=O)C#CC(C)(C)N(C)C)CC3)C(=O)N3CCCC(N3)C(=O)OCC(C)(C)C2)C1
MET

I'd appreciate it if you could check whether Cc1nc(N2CCC3(CC2)COC(C)C3N)c(CO)nc1Sc1ccnc(N)c1Cl (stereo not given) + CCn1c(-c2cc(N3CCN(C)CC3)cnc2C(C)OC)c2c3cc(ccc31)-c1csc(n1)CC(NC(=O)C1CC1C)C(=O)N1CCCC(N1)C(=O)OCC(C)(C)C2 has viability, T/C smaller than 70%.
NOT MET

Hello, I'm reviewing records and need to know if viability, T/C of C=CC(=O)Nc1cc(Nc2nccc(-c3cn(C)c4ccccc34)n2)c(OC)cc1N(C)CCN(C)C + CCn1c(-c2cccnc2C(C)OC)c2c3cc(ccc31)N1CCOC(CC(NC(=O)C(C(C)C)N(C)C(=O)C3(F)CCN(C(=O)C#CC(C)(C)N(C)C)CC3)C(=O)N3CCCC(N3)C(=O)OCC(C)(C)C2)C1 is below 70%. Could you check?
NOT MET

Is it true that viability, T/C reported for CC(C)NCC(C(=O)N1CCN(c2ncnc3c2C(C)CC3O)CC1)c1ccc(Cl)cc1 (stereo not given) + CCn1c(-c2cccnc2C(C)OC)c2c3cc(ccc31)N1CCOC(CC(NC(=O)C(C(C)C)N(C)C(=O)C3(F)CCN(C(=O)C#CC(C)(C)N(C)C)CC3)C(=O)N3CCCC(N3)C(=O)OCC(C)(C)C2)C1 is less than 70%?
NOT MET

Problem: For the compound CC1(O)CCCC1n1c(=O)c(C(F)F)cc2cnc(NC3CCN(S(C)(=O)=O)CC3)nc21 (stereo not given) + CCn1c(-c2cccnc2C(C)OC)c2c3cc(ccc31)N1CCOC(CC(NC(=O)C(C(C)C)N(C)C(=O)C3(F)CCN(C(=O)C#CC(C)(C)N(C)C)CC3)C(=O)N3CCCC(N3)C(=O)OCC(C)(C)C2)C1 , is viability, T/C under 70%?
MET

Here's an entry: CC(Nc1ccc2c(c1)OCCn1cc(N3C(=O)OCC3C(F)F)nc1-2)C(N)=O (stereo not given) + CCn1c(-c2cccnc2C(C)OC)c2c3cc(ccc31)N1CCOC(CC(NC(=O)C(C(C)C)N(C)C(=O)C3(F)CCN(C(=O)C#CC(C)(C)N(C)C)CC3)C(=O)N3CCCC(N3)C(=O)OCC(C)(C)C2)C1 . Is its viability, T/C below 70%?
MET

Strictly below 70%: is that where viability, T/C of O=C(c1ccc(F)c(F)c1Nc1ccc(I)cc1F)N1CC(O)([C@@H]2CCCCN2)C1 + CCn1c(-c2cc(N3CCN(C)CC3)cnc2C(C)OC)c2c3cc(ccc31)-c1csc(n1)CC(NC(=O)C1CC1C)C(=O)N1CCCC(N1)C(=O)OCC(C)(C)C2 sits?
NOT MET

Confirm or reject: viability, T/C of NC1c2ccccc2OC12CCN(c1cnc3c(N4CCCc5ncccc54)n[nH]c3n1)CC2 (stereo not given) + CCn1c(-c2cc(N3CCN(C)CC3)cnc2C(C)OC)c2c3cc(ccc31)-c1csc(n1)CC(NC(=O)C1CC1C)C(=O)N1CCCC(N1)C(=O)OCC(C)(C)C2 lies strictly below 70%
NOT MET

Values from PubChem BioAssay AID2060894
